System: 422866-222-R5-J1-PDC complex spheroids viability
Assay: Anticancer human tumor 422866-222-R5-J1-PDC patient-derived pancreatic adenocarcinoma cell line growth inhibition [RAS]
Conditions: second compound 0.00949 µM; first compound 0.00949 µM; active compounds read low
result.type: viability, T/C

Q. If you can, please state the reported viability, T/C value of CC1(C)CCC(Nc2ncc(C(F)(F)F)c(-c3c[nH]c4c(P(C)(C)=O)c(C#N)ccc34)n2)CN1 (centres undefined) + CCn1c(-c2cc(N3CCN(C)CC3)cnc2C(C)OC)c2c3cc(ccc31)-c1csc(n1)CC(NC(=O)C1CC1C)C(=O)N1CCCC(N1)C(=O)OCC(C)(C)C2 .
A. 23.1%

Q. If you can, please state the reported viability, T/C value of CC1(C)CCC(Nc2ncc(C(F)(F)F)c(-c3c[nH]c4c(P(C)(C)=O)c(C#N)ccc34)n2)CN1 (centres undefined) + CCn1c(-c2cccnc2C(C)OC)c2c3cc(ccc31)N1CCOC(CC(NC(=O)C(C(C)C)N(C)C(=O)C3(F)CCN(C(=O)C#CC(C)(C)N(C)C)CC3)C(=O)N3CCCC(N3)C(=O)OCC(C)(C)C2)C1 .
A. 26.1%

Q. If you can, please state the reported viability, T/C value of CCc1c2c(nc3ccc(O)cc13)-c1cc3c(c(=O)n1C2)COC(=O)[C@]3(O)CC + CCn1c(-c2cc(N3CCN(C)CC3)cnc2C(C)OC)c2c3cc(ccc31)-c1csc(n1)CC(NC(=O)C1CC1C)C(=O)N1CCCC(N1)C(=O)OCC(C)(C)C2 .
A. 13.8%

# next compound below
Q. If you can, please state the reported viability, T/C value of CCc1c2c(nc3ccc(O)cc13)-c1cc3c(c(=O)n1C2)COC(=O)[C@]3(O)CC + CCn1c(-c2cccnc2C(C)OC)c2c3cc(ccc31)N1CCOC(CC(NC(=O)C(C(C)C)N(C)C(=O)C3(F)CCN(C(=O)C#CC(C)(C)N(C)C)CC3)C(=O)N3CCCC(N3)C(=O)OCC(C)(C)C2)C1 .
A. 17.7%

====

Tested on: 422866-222-R5-J1-PDC complex spheroids viability
Assay: Anticancer human tumor 422866-222-R5-J1-PDC cell line growth inhibition [RAS];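 further: spheroids exposed to compounds for 7 days; 100% = DMSO vehicle control viability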
Conditions: second compound 0.0949 µM; first compound 0.01 µM; active compounds read low
Listing of recorded viability, T/C by entry.
Please give a number only; it is taken to be in %.

Record excerpt, results attached:
Q. Record O=C(c1ccc(F)c(F)c1Nc1ccc(I)cc1F)N1CC(O)([C@@H]2CCCCN2)C1 + CCn1c(-c2cccnc2C(C)OC)c2c3cc(ccc31)N1CCOC(CC(NC(=O)C(C(C)C)N(C)C(=O)C3(F)CCN(C(=O)C#CC(C)(C)N(C)C)CC3)C(=O)N3CCCC(N3)C(=O)OCC(C)(C)C2)C1 : what is its viability, T/C with 422866-222-R5-J1-PDC complex spheroids viability?
A. 13.1

Q. Record Nc1ccn(C2OC(CO)C(O)C2(F)F)c(=O)n1 (configuration not stated) + CCn1c(-c2cccnc2C(C)OC)c2c3cc(ccc31)N1CCOC(CC(NC(=O)C(C(C)C)N(C)C(=O)C3(F)CCN(C(=O)C#CC(C)(C)N(C)C)CC3)C(=O)N3CCCC(N3)C(=O)OCC(C)(C)C2)C1 : what is its viability, T/C with 422866-222-R5-J1-PDC complex spheroids viability?
A. 17.9

Q. Record CC(C)n1nc(-c2ccc3oc(N)nc3c2)c2c(N)ncnc21 + CCn1c(-c2cccnc2C(C)OC)c2c3cc(ccc31)N1CCOC(CC(NC(=O)C(C(C)C)N(C)C(=O)C3(F)CCN(C(=O)C#CC(C)(C)N(C)C)CC3)C(=O)N3CCCC(N3)C(=O)OCC(C)(C)C2)C1 : what is its viability, T/C with 422866-222-R5-J1-PDC complex spheroids viability?
A. 15.2

More entries:
Q. Record C=CC(=O)Nc1cc(Nc2nccc(-c3cn(C)c4ccccc34)n2)c(OC)cc1N(C)CCN(C)C + CCn1c(-c2cccnc2C(C)OC)c2c3cc(ccc31)N1CCOC(CC(NC(=O)C(C(C)C)N(C)C(=O)C3(F)CCN(C(=O)C#CC(C)(C)N(C)C)CC3)C(=O)N3CCCC(N3)C(=O)OCC(C)(C)C2)C1 : what is its viability, T/C with 422866-222-R5-J1-PDC complex spheroids viability?
A. 16.2

Q. Record O=C(c1ccc(F)c(F)c1Nc1ccc(I)cc1F)N1CC(O)([C@@H]2CCCCN2)C1 + CCn1c(-c2cc(N3CCN(C)CC3)cnc2C(C)OC)c2c3cc(ccc31)-c1csc(n1)CC(NC(=O)C1CC1C)C(=O)N1CCCC(N1)C(=O)OCC(C)(C)C2 : what is its viability, T/C with 422866-222-R5-J1-PDC complex spheroids viability?
A. 16

Q. Record C=CC(=O)N1CCN(c2nc(OCC3CCCN3C)nc3c(F)c(-c4nc(N)cc(C)c4C(F)(F)F)c(Cl)cc23)C(C)C1 (configuration not stated) + CCn1c(-c2cc(N3CCN(C)CC3)cnc2C(C)OC)c2c3cc(ccc31)-c1csc(n1)CC(NC(=O)C1CC1C)C(=O)N1CCCC(N1)C(=O)OCC(C)(C)C2 : what is its viability, T/C with 422866-222-R5-J1-PDC complex spheroids viability?
A. 16.9

Q. Record Nc1ccn(C2OC(CO)C(O)C2(F)F)c(=O)n1 (configuration not stated) + CCn1c(-c2cc(N3CCN(C)CC3)cnc2C(C)OC)c2c3cc(ccc31)-c1csc(n1)CC(NC(=O)C1CC1C)C(=O)N1CCCC(N1)C(=O)OCC(C)(C)C2 : what is its viability, T/C with 422866-222-R5-J1-PDC complex spheroids viability?
A. 20.8

Q. Record CCN1CCN(Cc2ccc(Nc3ncc(F)c(-c4cc(F)c5nc(C)n(C(C)C)c5c4)n3)nc2)CC1 + CCn1c(-c2cc(N3CCN(C)CC3)cnc2C(C)OC)c2c3cc(ccc31)-c1csc(n1)CC(NC(=O)C1CC1C)C(=O)N1CCCC(N1)C(=O)OCC(C)(C)C2 : what is its viability, T/C with 422866-222-R5-J1-PDC complex spheroids viability?
A. 18.4

Q. Record C=CC(=O)N1CCN(c2nc(OCC3CCCN3C)nc3c(F)c(-c4nc(N)cc(C)c4C(F)(F)F)c(Cl)cc23)C(C)C1 (configuration not stated) + CCn1c(-c2cccnc2C(C)OC)c2c3cc(ccc31)N1CCOC(CC(NC(=O)C(C(C)C)N(C)C(=O)C3(F)CCN(C(=O)C#CC(C)(C)N(C)C)CC3)C(=O)N3CCCC(N3)C(=O)OCC(C)(C)C2)C1 : what is its viability, T/C with 422866-222-R5-J1-PDC complex spheroids viability?
A. 19.8

====

Tested on: 422866-222-R5-J1-PDC complex spheroids viability
Assay: Anticancer human tumor 422866-222-R5-J1-PDC cell line growth inhibition [RAS];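 further: spheroids exposed to compounds for 7 days; 100% = DMSO vehicle control viability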
Conditions: second compound 0.3 µM; first compound 0.0316 µM; active compounds read low
Listing of recorded viability, T/C by entry.
Please give a number only; it is taken to be in %.

Record excerpt, results attached:
Q. If you can, please state the reported viability, T/C value of CCN1CCN(Cc2ccc(Nc3ncc(F)c(-c4cc(F)c5nc(C)n(C(C)C)c5c4)n3)nc2)CC1 + CCn1c(-c2cccnc2C(C)OC)c2c3cc(ccc31)N1CCOC(CC(NC(=O)C(C(C)C)N(C)C(=O)C3(F)CCN(C(=O)C#CC(C)(C)N(C)C)CC3)C(=O)N3CCCC(N3)C(=O)OCC(C)(C)C2)C1 .
A. 18.8

Q. If you can, please state the reported viability, T/C value of CC(C)n1nc(-c2ccc3oc(N)nc3c2)c2c(N)ncnc21 + CCn1c(-c2cccnc2C(C)OC)c2c3cc(ccc31)N1CCOC(CC(NC(=O)C(C(C)C)N(C)C(=O)C3(F)CCN(C(=O)C#CC(C)(C)N(C)C)CC3)C(=O)N3CCCC(N3)C(=O)OCC(C)(C)C2)C1 .
A. 12.3

Q. If you can, please state the reported viability, T/C value of CC(=O)OC12COC1CC(O)C1(C)C(=O)C(O)C3=C(C)C(OC(=O)C(O)C(NC(=O)OC(C)(C)C)c4ccccc4)CC(O)(C(OC(=O)c4ccccc4)C21)C3(C)C (centres undefined) + CCn1c(-c2cc(N3CCN(C)CC3)cnc2C(C)OC)c2c3cc(ccc31)-c1csc(n1)CC(NC(=O)C1CC1C)C(=O)N1CCCC(N1)C(=O)OCC(C)(C)C2 .
A. 16.7

# next molecule below
Q. If you can, please state the reported viability, T/C value of CCC(CC)c1cc(NC2CCC(N)C2)n2nccc2n1 (centres undefined) + CCn1c(-c2cccnc2C(C)OC)c2c3cc(ccc31)N1CCOC(CC(NC(=O)C(C(C)C)N(C)C(=O)C3(F)CCN(C(=O)C#CC(C)(C)N(C)C)CC3)C(=O)N3CCCC(N3)C(=O)OCC(C)(C)C2)C1 .
A. 15.6
